systemName: Norepinephrine transporter NET (Homo sapiens, UniProt P23975)
Construct: host or cells: MDCK
Sequence (P23975 whole entry): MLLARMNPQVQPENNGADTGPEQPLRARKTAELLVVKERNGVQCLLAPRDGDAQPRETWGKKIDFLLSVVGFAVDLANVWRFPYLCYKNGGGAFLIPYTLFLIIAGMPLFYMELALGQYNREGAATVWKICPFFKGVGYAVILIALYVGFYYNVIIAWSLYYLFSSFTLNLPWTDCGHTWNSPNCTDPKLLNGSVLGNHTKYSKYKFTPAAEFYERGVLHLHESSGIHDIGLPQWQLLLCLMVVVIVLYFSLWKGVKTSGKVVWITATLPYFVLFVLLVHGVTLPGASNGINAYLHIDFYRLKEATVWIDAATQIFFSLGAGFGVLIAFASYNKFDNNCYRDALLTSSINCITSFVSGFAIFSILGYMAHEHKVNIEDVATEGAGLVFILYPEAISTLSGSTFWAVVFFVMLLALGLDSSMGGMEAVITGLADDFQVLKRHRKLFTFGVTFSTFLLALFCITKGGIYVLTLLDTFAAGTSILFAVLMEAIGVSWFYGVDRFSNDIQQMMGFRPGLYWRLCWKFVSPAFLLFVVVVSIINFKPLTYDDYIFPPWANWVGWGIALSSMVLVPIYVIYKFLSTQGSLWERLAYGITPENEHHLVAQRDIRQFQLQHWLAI
assaySummary: Radioligand displacement binding assay, [125I]RTI-55, NET
details: 1 μM
propertyMeasured: inhibition at 1 µM (%)
Provide only the numeric value, understood in %.

Short answer please: inhibition at 1 µM, Norepinephrine transporter NET (Homo sapiens, UniProt P23975), entry CC[C@H](O)C(C[C@@H](C)N)(c1ccccc1)c1ccccc1 0

Also CC[C@@H](O)C(C[C@H](C)NC)(c1ccccc1)c1ccccc1 , if possible. 10

Also CC[C@H](O)C(C[C@H](C)N)(c1ccccc1)c1ccccc1 , if possible. -5

Also CC[C@@H](O)C(C[C@@H](C)NC)(c1ccccc1)c1ccccc1 , if possible. -2

Also CC[C@H](O)C(C[C@H](C)NC)(c1ccccc1)c1ccccc1 , if possible. -12

Also CC[C@@H](O)C(C[C@H](C)N)(c1ccccc1)c1ccccc1 , if possible. 0

====

systemName: Norepinephrine transporter NET (Homo sapiens)
Construct: host or cells: MDCK
assaySummary: Radioligand displacement binding assay, [125I]RTI-55, NET
details: 10 μM
propertyMeasured: inhibition at 10 µM (%)
Provide only the numeric value, understood in %.

Endpoint output: inhibition at 10 µM of CC[C@@H](O)C(C[C@H](C)NC)(c1ccccc1)c1ccccc1 [(3R,6S)-NML] . Value? 14

Also CC[C@H](O)C(C[C@@H](C)NC)(c1ccccc1)c1ccccc1 [(3S,6R)-NML] , if possible. 9

Also CC[C@H](O)C(C[C@H](C)NC)(c1ccccc1)c1ccccc1 [(3S,6S)-NML] , if possible. 12

Also CC[C@@H](O)C(C[C@@H](C)NC)(c1ccccc1)c1ccccc1 [(3R,6R)-NML] , if possible. 14

Also CC[C@@H](O)C(C[C@@H](C)N)(c1ccccc1)c1ccccc1 [(3R,6R)-DNML, (3R,6R)-6-amino-4,4-diphenylheptan-3-ol] , if possible. 6

Also CCC1=N[C@H](C)CC1(c1ccccc1)c1ccccc1 [(R)-EMDP] , if possible. 27

====

systemName: GluN1-GluN2B NMDAR subtype (Homo sapiens, UniProt Q05586+Q13224)
Construct: host or cells: NR1-2B-CHO cells, constitutive expression
Sequence (Q13224 27-1484, other chains not shown): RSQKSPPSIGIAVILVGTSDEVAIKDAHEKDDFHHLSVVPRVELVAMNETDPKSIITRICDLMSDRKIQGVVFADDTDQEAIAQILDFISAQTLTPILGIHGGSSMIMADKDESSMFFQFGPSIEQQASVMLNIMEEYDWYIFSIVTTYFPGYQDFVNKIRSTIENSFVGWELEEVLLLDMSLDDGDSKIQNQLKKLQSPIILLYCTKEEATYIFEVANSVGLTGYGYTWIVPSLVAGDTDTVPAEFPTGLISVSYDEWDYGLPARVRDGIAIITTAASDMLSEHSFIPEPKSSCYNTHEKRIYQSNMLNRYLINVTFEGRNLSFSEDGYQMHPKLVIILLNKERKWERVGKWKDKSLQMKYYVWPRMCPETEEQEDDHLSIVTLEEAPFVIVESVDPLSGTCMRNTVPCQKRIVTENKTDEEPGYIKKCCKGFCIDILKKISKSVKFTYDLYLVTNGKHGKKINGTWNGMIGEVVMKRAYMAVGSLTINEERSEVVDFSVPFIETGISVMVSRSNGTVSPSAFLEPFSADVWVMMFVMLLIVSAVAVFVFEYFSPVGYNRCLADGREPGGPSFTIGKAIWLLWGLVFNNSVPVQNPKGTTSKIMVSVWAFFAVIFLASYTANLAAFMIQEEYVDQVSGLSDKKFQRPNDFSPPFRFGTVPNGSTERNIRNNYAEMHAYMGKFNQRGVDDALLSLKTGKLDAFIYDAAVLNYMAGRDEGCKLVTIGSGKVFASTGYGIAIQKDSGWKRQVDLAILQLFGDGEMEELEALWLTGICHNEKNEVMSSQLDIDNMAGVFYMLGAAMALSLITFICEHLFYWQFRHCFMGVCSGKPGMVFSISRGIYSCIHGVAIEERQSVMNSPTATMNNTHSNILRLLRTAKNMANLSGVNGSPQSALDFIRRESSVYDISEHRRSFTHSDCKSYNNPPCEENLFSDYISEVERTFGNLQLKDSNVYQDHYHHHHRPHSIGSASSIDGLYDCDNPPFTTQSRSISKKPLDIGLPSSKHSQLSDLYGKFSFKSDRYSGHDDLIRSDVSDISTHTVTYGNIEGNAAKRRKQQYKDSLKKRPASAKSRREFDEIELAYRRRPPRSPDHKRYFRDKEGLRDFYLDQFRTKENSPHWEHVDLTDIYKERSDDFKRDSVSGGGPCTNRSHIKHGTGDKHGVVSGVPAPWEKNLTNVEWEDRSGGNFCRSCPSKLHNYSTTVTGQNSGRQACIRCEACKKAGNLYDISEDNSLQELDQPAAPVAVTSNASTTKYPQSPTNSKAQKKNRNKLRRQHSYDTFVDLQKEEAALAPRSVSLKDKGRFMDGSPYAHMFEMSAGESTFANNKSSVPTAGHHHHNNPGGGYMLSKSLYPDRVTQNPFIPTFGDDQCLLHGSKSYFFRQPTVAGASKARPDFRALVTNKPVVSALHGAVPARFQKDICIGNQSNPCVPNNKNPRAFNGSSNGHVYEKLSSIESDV
assaySummary: FLIPR/Ca2+ assay, NMDAR GluN1-GluN2B subtype in CHO cells
Assay type: cell-based
details: CHO cells, 10 μM L-glutamate and 10 μM glycine; n.d. = 50% of inhibition could not be reached at the highest concentration used
I'd appreciate it if you could supply pIC50 (mean ± SEM) GluN1-GluN2B values for the items below.

Short answer please: pIC50 (mean ± SEM) GluN1-GluN2B, GluN1-GluN2B NMDAR subtype (Homo sapiens, UniProt Q05586+Q13224), entry CC[C@@H](O)C(C[C@H](C)N)(c1ccccc1)c1ccccc1 [(3R,6S)-DNML, (3R,6S)-6-amino-4,4-diphenylheptan-3-ol] 4.6 ± 0.062

Also CC[C@H](O)C(C[C@@H](C)N)(c1ccccc1)c1ccccc1 [(3S,6R)-DNML, (3S,6R)-6-amino-4,4-diphenylheptan-3-ol] , if possible. 4.4 ± 0.042

Also CC[C@H](O)C(C[C@@H](C)NC)(c1ccccc1)c1ccccc1 [(3S,6R)-NML] , if possible. 4.6 ± 0.047

====

systemName: Muscarinic M5 (Homo sapiens, UniProt P08912)
Construct: host or cells: CHO-K1
Sequence (P08912 whole entry): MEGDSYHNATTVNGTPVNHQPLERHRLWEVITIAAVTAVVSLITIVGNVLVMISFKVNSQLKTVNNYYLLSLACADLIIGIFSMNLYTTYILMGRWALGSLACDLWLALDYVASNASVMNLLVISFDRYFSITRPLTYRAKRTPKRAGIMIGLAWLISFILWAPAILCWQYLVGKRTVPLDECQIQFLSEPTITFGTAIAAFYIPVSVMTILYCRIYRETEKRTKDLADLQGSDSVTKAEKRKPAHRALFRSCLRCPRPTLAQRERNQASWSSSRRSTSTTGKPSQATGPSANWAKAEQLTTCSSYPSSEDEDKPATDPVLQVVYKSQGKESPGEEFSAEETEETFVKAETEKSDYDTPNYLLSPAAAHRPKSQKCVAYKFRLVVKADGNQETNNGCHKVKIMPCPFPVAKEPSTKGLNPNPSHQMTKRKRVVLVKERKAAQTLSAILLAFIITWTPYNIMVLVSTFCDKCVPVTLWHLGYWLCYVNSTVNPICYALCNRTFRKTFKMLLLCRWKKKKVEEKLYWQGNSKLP
assaySummary: Radioligand displacement binding assay, [3H]N-methylscopolamine, M5
details: 1 μM
propertyMeasured: inhibition at 1 µM (%)
Provide only the numeric value, understood in %.

Endpoint output: inhibition at 1 µM of CC[C@H](O)C(C[C@@H](C)NC)(c1ccccc1)c1ccccc1 [(3S,6R)-NML] . Value? 21

Also CCC(=O)C(C[C@H](C)N(C)C)(c1ccccc1)c1ccccc1 [(S)-methadone, reference compound] , if possible. 25

Also CC[C@H](O)C(C[C@@H](C)N)(c1ccccc1)c1ccccc1 [(3S,6R)-DNML, (3S,6R)-6-amino-4,4-diphenylheptan-3-ol] , if possible. 12

====

systemName: Serotonin 5-HT5A (Homo sapiens, UniProt P47898)
Construct: host or cells: CHO-K1
Sequence (P47898 whole entry): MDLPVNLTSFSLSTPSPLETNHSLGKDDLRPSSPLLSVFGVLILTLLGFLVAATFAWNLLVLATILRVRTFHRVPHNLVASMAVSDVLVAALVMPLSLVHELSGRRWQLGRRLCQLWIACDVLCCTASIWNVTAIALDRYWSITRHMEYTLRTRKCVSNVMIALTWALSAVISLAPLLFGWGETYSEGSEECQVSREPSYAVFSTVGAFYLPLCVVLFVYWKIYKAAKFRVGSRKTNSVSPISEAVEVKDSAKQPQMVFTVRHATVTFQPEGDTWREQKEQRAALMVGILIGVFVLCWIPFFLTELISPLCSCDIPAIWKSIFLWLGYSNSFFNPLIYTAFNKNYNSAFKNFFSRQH
assaySummary: Radioligand displacement binding assay, [3H]LSD, 5-HT5A
details: 10 μM
I'd appreciate it if you could supply inhibition at 10 µM values for the items below.
Provide only the numeric value, understood in %.

Short answer please: inhibition at 10 µM, Serotonin 5-HT5A (Homo sapiens, UniProt P47898), entry CC[C@H](O)C(C[C@@H](C)NC)(c1ccccc1)c1ccccc1 [(3S,6R)-NML] 42

Also CC[C@@H](O)C(C[C@H](C)N)(c1ccccc1)c1ccccc1 [(3R,6S)-DNML, (3R,6S)-6-amino-4,4-diphenylheptan-3-ol] , if possible. 16

Also CC[C@@H](O)C(C[C@@H](C)NC)(c1ccccc1)c1ccccc1 [(3R,6R)-NML] , if possible. 63
